These data points were gathered from patent US8951993B2.

# assayedSystem: ALK mutant L1196M (Homo sapiens, UniProt Q9UM73, L1196M)
# Construct: purchased Carna Biosciences (Chuo-ku, Kobe, Japan)
# Sequence (Q9UM73 19-1620 L1196M): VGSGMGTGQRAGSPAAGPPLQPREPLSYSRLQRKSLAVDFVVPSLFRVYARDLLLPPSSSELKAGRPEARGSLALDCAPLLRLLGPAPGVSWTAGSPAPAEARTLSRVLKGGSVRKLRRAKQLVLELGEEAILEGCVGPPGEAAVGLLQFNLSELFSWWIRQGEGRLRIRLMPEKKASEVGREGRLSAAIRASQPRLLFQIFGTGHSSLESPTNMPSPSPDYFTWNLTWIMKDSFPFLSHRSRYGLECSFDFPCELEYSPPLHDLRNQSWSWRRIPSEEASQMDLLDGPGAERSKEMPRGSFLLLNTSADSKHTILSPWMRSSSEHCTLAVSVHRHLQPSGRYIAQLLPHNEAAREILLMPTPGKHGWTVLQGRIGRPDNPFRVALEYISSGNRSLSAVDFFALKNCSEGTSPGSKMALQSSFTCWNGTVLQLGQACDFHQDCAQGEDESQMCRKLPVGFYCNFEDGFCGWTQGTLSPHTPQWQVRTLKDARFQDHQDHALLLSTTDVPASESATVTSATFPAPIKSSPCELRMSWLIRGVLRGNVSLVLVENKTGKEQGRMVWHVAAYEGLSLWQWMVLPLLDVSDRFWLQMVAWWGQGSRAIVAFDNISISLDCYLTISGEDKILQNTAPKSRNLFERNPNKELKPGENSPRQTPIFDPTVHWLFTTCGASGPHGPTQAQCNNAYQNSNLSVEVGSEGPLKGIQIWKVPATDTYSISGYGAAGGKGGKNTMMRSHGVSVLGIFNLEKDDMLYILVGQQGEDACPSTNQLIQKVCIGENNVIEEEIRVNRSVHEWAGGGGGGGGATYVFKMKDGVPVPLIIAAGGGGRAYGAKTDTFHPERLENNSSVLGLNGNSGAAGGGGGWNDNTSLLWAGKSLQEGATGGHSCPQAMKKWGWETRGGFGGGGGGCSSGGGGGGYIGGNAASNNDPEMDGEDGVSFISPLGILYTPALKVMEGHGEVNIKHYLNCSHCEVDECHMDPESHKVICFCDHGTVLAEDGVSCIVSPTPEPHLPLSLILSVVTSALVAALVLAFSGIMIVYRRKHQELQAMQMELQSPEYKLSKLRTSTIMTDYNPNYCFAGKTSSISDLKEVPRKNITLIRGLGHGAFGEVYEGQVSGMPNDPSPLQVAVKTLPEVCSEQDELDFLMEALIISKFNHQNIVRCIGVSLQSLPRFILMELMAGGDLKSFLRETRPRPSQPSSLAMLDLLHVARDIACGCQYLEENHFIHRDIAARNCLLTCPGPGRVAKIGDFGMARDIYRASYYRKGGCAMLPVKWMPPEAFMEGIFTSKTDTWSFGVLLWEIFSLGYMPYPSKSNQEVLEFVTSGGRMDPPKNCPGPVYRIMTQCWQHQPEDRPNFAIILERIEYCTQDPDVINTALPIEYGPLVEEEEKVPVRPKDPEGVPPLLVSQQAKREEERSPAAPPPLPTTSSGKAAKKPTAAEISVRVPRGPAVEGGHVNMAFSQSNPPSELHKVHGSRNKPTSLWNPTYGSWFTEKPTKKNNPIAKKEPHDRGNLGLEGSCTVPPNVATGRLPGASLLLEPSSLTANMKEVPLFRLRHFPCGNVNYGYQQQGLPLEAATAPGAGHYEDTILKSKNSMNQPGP
# assayRemarks: Off-chip mobility shift assay (Carna Biosciences), ALK L1196M
# Format: biochemical
# conditionSummary: mobility shift, ATP 72 μM; read-out: IC50 ALK L1196M
# Experimental: The activities of ALK wild type, its mutant F1174L, R1275Q, L1196M and EML4-ALK, NPM1-ALK were also determined using off-chip mobility shift assay at Carna Biosciences (Chuo-ku, Kobe, Japan). […] The reaction mixture was applied to LabChip3000 system (Caliper Life Science), and the product and substrate peptide peaks were separated and quantitated. The kinase reaction was evaluated by the product ratio calculated from peak heights of product (P) and substrate (S) peptides (P/(P+S)). […]
Answer each item with its documented IC50.

Entry COc1cc(P(C)(C)=O)ccc1-c1cnc(N)c(O[C@H](C)c2c(Cl)ccc(F)c2Cl)c1 ; IC50 = < 50 nM

Entry C[C@@H](Oc1cc(-c2ccc(P(C)(C)=O)cc2F)cnc1N)c1c(Cl)ccc(F)c1Cl — recorded IC50 = < 50 nM
